TARGET DESC: HsPRC2_4 (Homo sapiens, UniProt Q15910)
Construct: intact HsPRC2_4 (full-length EZH2 (EZH2_FL) and SUZ12 co-migrate on SDS-PAGE); made in house; host or cells: Sf9 insect cells (baculovirus co-infection)
Sequence (Q15910 whole entry): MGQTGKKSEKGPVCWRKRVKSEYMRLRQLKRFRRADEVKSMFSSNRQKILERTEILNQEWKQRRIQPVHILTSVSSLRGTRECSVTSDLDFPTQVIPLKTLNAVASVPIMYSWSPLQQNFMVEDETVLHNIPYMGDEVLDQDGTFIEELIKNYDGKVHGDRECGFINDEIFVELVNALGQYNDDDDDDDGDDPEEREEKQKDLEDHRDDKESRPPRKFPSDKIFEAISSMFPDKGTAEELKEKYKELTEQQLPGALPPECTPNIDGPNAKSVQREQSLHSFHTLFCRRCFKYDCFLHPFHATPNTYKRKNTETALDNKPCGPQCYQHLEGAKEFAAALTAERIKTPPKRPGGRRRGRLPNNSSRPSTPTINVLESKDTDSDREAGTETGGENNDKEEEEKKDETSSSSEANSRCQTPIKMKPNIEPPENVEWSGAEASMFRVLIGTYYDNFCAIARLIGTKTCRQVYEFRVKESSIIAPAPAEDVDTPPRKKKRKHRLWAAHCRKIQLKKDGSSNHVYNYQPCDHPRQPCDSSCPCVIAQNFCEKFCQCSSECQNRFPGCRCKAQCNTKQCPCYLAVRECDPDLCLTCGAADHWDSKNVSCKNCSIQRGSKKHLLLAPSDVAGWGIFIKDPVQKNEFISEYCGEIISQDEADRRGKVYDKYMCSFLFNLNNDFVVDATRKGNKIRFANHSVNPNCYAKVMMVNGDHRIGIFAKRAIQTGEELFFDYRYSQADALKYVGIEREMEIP
Sequence (O75530 whole entry partner): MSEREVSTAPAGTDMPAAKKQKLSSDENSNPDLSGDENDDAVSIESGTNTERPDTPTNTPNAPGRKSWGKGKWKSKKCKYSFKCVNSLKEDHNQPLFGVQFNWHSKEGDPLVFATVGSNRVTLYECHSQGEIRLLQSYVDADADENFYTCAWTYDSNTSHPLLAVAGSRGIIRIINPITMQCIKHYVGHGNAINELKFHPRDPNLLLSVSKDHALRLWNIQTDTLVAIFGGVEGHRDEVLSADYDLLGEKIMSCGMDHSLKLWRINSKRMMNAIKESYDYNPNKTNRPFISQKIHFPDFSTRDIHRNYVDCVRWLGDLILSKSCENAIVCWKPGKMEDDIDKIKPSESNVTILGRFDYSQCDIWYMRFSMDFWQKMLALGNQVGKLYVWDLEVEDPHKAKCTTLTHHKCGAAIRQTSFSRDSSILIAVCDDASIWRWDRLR
Sequence (Q15022 whole entry partner): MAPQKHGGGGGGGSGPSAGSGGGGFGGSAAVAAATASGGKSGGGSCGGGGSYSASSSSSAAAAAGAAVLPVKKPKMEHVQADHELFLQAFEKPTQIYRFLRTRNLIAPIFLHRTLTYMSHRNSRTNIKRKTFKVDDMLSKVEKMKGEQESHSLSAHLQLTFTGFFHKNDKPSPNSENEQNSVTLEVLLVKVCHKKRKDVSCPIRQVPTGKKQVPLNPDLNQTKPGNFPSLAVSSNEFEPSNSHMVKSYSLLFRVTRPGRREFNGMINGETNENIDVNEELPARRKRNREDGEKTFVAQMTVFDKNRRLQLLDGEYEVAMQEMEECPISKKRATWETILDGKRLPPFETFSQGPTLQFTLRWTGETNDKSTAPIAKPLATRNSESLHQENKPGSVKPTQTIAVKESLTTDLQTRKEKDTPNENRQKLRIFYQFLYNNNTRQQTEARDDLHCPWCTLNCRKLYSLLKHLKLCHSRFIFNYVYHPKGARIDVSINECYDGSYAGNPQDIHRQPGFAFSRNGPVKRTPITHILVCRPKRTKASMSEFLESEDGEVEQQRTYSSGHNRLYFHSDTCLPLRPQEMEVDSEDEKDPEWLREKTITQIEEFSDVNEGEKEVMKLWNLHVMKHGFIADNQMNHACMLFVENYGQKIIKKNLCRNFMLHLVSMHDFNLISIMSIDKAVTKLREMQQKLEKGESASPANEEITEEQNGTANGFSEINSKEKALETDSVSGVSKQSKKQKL
Sequence (Q09028 whole entry partner): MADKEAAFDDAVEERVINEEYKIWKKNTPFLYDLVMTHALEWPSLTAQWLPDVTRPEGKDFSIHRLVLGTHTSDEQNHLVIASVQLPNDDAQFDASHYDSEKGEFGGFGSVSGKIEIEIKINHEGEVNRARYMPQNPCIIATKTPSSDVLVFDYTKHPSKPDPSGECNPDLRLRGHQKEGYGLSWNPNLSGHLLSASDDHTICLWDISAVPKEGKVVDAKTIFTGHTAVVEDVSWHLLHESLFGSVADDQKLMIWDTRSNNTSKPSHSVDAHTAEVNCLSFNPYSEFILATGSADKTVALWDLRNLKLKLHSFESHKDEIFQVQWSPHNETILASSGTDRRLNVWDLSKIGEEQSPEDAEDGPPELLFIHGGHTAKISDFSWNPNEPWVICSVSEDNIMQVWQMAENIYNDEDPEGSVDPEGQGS
EXPERIMENT NOTES: Inhibition of basal and activated states of HsPRC2_4
Assay type: biochemical
REPORTED CONDITIONS: no activator; SAM above Km; mean of two independent experiments

MOLECULE | Ki [nM]
CCc1cc(C)[nH]c(=O)c1CN1CCc2c(Cl)cc(OC3CCN(C(=O)C(C)O)CC3)c(Cl)c2C1=O (stereo not shown) | 0.89

###

TARGET DESC: HsPRC2_4 (Y641N/Y661D) (Homo sapiens, UniProt Q15910, Y641N/Y661D)
Construct: intact HsPRC2_4 (full-length EZH2 (EZH2_FL) and SUZ12 co-migrate on SDS-PAGE)
Sequence (Q15910 whole entry Y641N/Y661D): as the sequence (Q15910 whole entry) above, with Y641N, Y661D counted along it
Sequence (O75530 whole entry partner): as the sequence (O75530 whole entry partner) above
Sequence (Q15022 whole entry partner): as the sequence (Q15022 whole entry partner) above
Sequence (Q09028 whole entry partner): as the sequence (Q09028 whole entry partner) above
EXPERIMENT NOTES: Radioactive filter-binding histone methyltransferase assay, HsPRC2_4 (Y641N/Y661D), oligonucleosome substrate
REPORTED CONDITIONS: oligonucleosome substrate; n=2, mean±s.d.

COMPOUND | TARGET DESC | Ki, nM
CCc1cc(C)[nH]c(=O)c1CN1CCc2c(Cl)cc(OC3CCN(C(=O)C(C)O)CC3)c(Cl)c2C1=O (stereo not shown) [inhibitor 1] | HsPRC2_4 (Y641N/Y661D) (Homo sapiens, UniProt Q15910, Y641N/Y661D) | 204

###

TARGET DESC: HsPRC2_4 (Y111L) (Homo sapiens, UniProt Q15910, Y111L)
Construct: intact HsPRC2_4 (full-length EZH2 (EZH2_FL) and SUZ12 co-migrate on SDS-PAGE)
Sequence (Q15910 whole entry Y111L): as the sequence (Q15910 whole entry) above, with Y111L counted along it
Sequence (O75530 whole entry partner): as the sequence (O75530 whole entry partner) above
Sequence (Q15022 whole entry partner): as the sequence (Q15022 whole entry partner) above
Sequence (Q09028 whole entry partner): as the sequence (Q09028 whole entry partner) above
EXPERIMENT NOTES: Radioactive filter-binding histone methyltransferase assay, HsPRC2_4 (Y111L), oligonucleosome substrate
REPORTED CONDITIONS: oligonucleosome substrate; n=2, mean±s.d.
pKi: −log10 of the molar value.

MOLECULE | pKi
CCc1cc(C)[nH]c(=O)c1CN1CCc2c(Cl)cc(OC3CCN(C(=O)C(C)O)CC3)c(Cl)c2C1=O (stereo not shown) [inhibitor 1] | 6.93

###

TARGET DESC: HsPRC2_4 (Homo sapiens, UniProt Q15910)
Construct: intact HsPRC2_4 (full-length EZH2 (EZH2_FL) and SUZ12 co-migrate on SDS-PAGE); made in house; host or cells: Sf9 insect cells (baculovirus co-infection)
EXPERIMENT NOTES: Inhibition of basal and activated states of HsPRC2_4
Format: biochemical
REPORTED CONDITIONS: in the presence of the activator peptide H3K27Me3 (21-44); SAM above Km; mean of two independent experiments
pKi: −log10 of the molar value.
QUANTITY KIND: pKi

COMPOUND | QUANTITY KIND | OBSERVED RESULT
CCc1cc(C)[nH]c(=O)c1CN1CCc2c(Cl)cc(OC3CCN(C(=O)C(C)O)CC3)c(Cl)c2C1=O (stereo not shown) | pKi | 9.19

###

TARGET DESC: HsPRC2_4 (Homo sapiens, UniProt Q15910)
Construct: intact HsPRC2_4 (full-length EZH2 (EZH2_FL) and SUZ12 co-migrate on SDS-PAGE); made in house; host or cells: Sf9 insect cells (baculovirus co-infection)
EXPERIMENT NOTES: Radioactive filter-binding histone methyltransferase assay, intact HsPRC2_4, oligonucleosome substrate
Type: biochemical
REPORTED CONDITIONS: oligonucleosome substrate; n=2, mean±s.d.

MOLECULE | UNIT INFO | Ki
CCc1cc(C)[nH]c(=O)c1CN1CCc2c(Cl)cc(OC3CCN(C(=O)C(C)O)CC3)c(Cl)c2C1=O (stereo not shown) | nM | 1.63
